For each record, write down the corresponding phosphorylation enrichment.
# measured-on: Hck (UniProt P08631)
# Sequence (P08631 whole entry, looked up): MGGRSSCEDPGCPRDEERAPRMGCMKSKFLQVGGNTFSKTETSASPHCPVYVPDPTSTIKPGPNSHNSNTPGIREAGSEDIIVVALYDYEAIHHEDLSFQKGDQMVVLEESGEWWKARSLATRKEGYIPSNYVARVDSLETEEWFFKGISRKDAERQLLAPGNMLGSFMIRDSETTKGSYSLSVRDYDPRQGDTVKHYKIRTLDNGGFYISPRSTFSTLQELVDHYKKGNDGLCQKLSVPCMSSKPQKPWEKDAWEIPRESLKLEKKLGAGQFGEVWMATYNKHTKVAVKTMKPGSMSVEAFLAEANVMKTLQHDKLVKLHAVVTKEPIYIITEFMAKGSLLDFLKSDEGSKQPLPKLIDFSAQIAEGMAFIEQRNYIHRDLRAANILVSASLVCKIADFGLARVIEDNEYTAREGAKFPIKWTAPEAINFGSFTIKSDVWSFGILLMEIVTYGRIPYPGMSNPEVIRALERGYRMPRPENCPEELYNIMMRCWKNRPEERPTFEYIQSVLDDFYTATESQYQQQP
# procedure-details: phosphorylation enrichment, bacterial display (enrichment ratio); higher = better substrate or ligand; peptides without Tyr show the background;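 further: 11-residue human phosphosite peptides and single-mutation variants displayed on the E. coli surface, counted by deep sequencing, each peptide's frequency after selection divided by its frequency in the unselected input library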;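 further: frequency after pTyr selection over input frequency; kinase dosed for 20-30% of maximal phosphorylation in three min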
Please reply with the number alone, leaving off any unit.

Kindly state the measured phosphorylation enrichment obtained for LNNIIYRVERA [CUX2_Y1470] with Hck (UniProt P08631).
0.738

Lookup RNFVHYVQGLK [VWF_Y1400_R1399H]
0.369

What would you report for DEEYEYMNRRR [ERBB3_Y1199] ?
0.546

Continue with PHMQTYEVDLN [SDHB_Y61]
0.804

Here is the next sequence: ADRSCYDLSCH [GARS1_Y467]
0.561

Field entry: EPNSRYTFKLE [USH2A_Y3745_YF]
0.393

Same again, this time with IYLADYRIMEG [ALOX12B_Y318]
0.812

Can you handle PANMVYSTVEI [SLAMF7_Y304_T302M] next?
9.3

And what about the sequence GCCSWYRGWAP [TIMP3_Y195_Y191C] ?
0.784

Subsequent entry: GRDQPYSGAGD [TYRO3_Y828]
0.445

Then what about the sequence ADELEYSRTGL [MMUT_Y287_G284E] ?
0.517

Then what about the sequence FSLIHYAGIVV [MYH7_Y582_D587V] ?
0.568

Please give the result for SIVEDYRPPFY [ACVRL1_Y421_G416S] too.
0.427

Lookup GGFTCYCDGKK [PROS1_Y266_YF]
0.484

Lookup CLEKEYFDQHF [NPC1_Y394_R389C]
0.508

And then ECKASCPGKIT [PRSS3_Y232_Y232C] , what is it?
0.351

LITTLYIGFLG [KCNQ1_Y267] , same question.
1.51

Now consider CTTIHYTFMCN [TP53_Y234_N235T_YF] and answer again.
0.576

Same read-out for GGMAEYTRLHN [EHHADH_Y4] ?
0.451

How about EVTQDYGLDPK [FH_Y110_N107T] ?
0.574

Here is the next sequence: GGGGSYNDFGN [HNRNPA1_Y312]
0.474

QEIATYRPLLE [KRT14_Y415_R417P] , same question.
0.674

Next sequence: DNKALYDICFR [TUBB3_Y208_E205K]
4.34

Further, for PESIMYWKFTT [NTRK3_Y744_R745W] ?
1.96

What would you report for FGDTPYIPFRD [CDC14C_Y132] ?
0.54

Follow-up item: WEPFGYAVTRC [PTPRT_Y412]
0.479

Also, RELSWYRGRRP [HESX1_Y106] please.
0.809

Moving on to LFSINYLHFGD [KDM4C_Y201_E206D_YF]
0.71

Check SDYYAYSPVQE [H6PD_Y449_R453Q] too.
6.3

###

# measured-on: EPHB2 (UniProt P29323)
# Sequence (P29323 whole entry, looked up): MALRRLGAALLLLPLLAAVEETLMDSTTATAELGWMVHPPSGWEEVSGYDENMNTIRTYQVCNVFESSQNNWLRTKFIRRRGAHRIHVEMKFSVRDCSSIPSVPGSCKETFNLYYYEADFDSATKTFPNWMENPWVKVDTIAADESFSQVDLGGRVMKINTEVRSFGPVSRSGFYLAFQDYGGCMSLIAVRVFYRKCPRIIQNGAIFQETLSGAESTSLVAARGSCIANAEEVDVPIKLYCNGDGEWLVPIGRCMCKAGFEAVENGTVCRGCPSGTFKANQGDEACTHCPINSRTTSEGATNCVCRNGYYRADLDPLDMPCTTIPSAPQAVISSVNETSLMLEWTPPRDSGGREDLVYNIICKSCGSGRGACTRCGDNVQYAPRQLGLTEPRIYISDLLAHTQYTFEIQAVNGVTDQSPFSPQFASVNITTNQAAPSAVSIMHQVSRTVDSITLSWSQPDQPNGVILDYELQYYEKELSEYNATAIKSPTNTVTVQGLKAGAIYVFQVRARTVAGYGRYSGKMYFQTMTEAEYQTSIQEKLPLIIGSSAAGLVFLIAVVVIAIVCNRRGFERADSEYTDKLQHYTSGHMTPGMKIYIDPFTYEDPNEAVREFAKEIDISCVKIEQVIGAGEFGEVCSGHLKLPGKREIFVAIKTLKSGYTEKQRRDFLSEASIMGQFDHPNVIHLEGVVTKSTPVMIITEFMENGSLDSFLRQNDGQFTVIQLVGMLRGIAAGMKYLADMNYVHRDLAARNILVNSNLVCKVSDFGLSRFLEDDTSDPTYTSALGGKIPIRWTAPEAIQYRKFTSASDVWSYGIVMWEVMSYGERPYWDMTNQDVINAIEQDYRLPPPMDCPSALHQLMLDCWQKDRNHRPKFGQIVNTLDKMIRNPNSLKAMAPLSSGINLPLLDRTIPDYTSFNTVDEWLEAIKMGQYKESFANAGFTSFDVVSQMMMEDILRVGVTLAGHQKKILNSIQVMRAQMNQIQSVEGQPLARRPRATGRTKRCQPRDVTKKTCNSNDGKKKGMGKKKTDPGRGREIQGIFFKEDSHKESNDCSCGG
# procedure-details: phosphorylation enrichment, bacterial display (enrichment ratio); higher = better substrate or ligand; peptides without Tyr show the background
measure: phosphorylation enrichment
A bare number is all that is needed in reply.

Which phosphorylation enrichment is reported with EPHB2 (UniProt P29323) for this entry: WRPFGYPCRRR [BCS1L_Y181_R183C] ?
0.435

// next record LARDMDDKEFF [MET_Y1230_Y1230D_YF]
0.53

Another sequence to check: EPDSLYGCGGG [ATM_Y2019]
0.766

Now this one: QTENKYVSVSG [EIF2AK3_Y565_D566V]
0.683

One more sequence: PSFSEYASVQV [SIRPA_Y496]
8.42

Same read-out for ISHVAYRVLGK [TRRAP_Y892] ?
0.365

What would you report for RNGNRYFKGIV [DCX_Y64_D62N] ?
0.51

Also EADRKYEEVAC [TPM3_Y163_R168C] ?
0.609

Again, but for DTNIAYCLHPR [POMT1_Y581_W582C]
0.532

Then what about the sequence ENEGTYVCIAT [ADAMTSL3_Y1365] ?
1.16

Also check GGFTCYCDGKK [PROS1_Y266_YF]
0.515

DRIVNYSRASV [ATP7A_Y1459_I1464V] ?
0.438

Record: FIGCIYLFLTK [GARS1_Y414_R412C_YF]
0.49

Could you do the same for LAARYYNWVSF [FLT4_Y1231] , please?
1.02

And WGTPEYDSVVA [MAP1A_Y1883_A1881P] ?
0.493

Also, DRKRQYELLKL [KIF4B_Y684] please.
0.462

SGGMDYGMVGG [TNRC6B_Y1382] ?
0.806

Item: RGESFYQDTMN [RARS_Y338_R341T]
1.63

And what about the sequence EVTQDYGLDPK [FH_Y110_N107T] ?
0.637

Can you handle ESLRSYDVMDV [KCNQ2_Y562_P561S] next?
0.714

Also need YADGVYLALEE [DUOX2_Y70_Q71L] , thanks.
1.28

Again, but for SYSGEYGGGGG [ZG16_Y30]
0.452

Now the same for RGVTRYIYNRE [HLA-DQB1_Y62_Y58G]
0.547

RIDPDYVGRVR [IGSF9_Y81] ?
0.402

Same question, DFSLKYATDIP [APC_Y1183_YF] this time
0.619

Moving on to the next sequence: LVPPRYARSEI [PKP2_Y194]
0.72

Try SDVNKYSTAFG [GJB3_Y16_G12D] next.
0.387

Proceed to WFISFYPQVIM [CTNS_Y143_S139F]
0.637

Now consider DDSNPYINVKL [MTHFD1_Y52_L51P] .
0.614

What do we get for RGKLFYQEVPA [METTL11B_Y76_A72G] ?
0.777

Next sequence: GIFEDYVEGLR [MYL6_Y89_T85I_YF]
0.7

# iterate: VNFGAYINDFK [GLB1_Y488_YF]
0.568

Same for TLNHQYDFTFD [CSNK1A1_Y292_YF]
0.543

Do the same for EILLSDLRTGY [TGM1_Y365_Y365D] please
0.455

Would you kindly repeat that for PADRAYSWFQH [NDST1_Y711_YF] ?
0.67

Repeat for the following sequence: PTTKTYFPRFD [HBA1_Y43_H46R]
0.421

// next record GELQGYDIMEP [MSH2_Y863_S860L]
0.522

Same question, GGMAEYTRLHN [EHHADH_Y4] this time
0.374

Now the same for CTTIRYNFMCN [TP53_Y234_H233R_YF]
0.613

Do the same for `TRTDAYAVSSF` please
0.464

VLVSQYEKLNA [AMZ2_Y26] ?
0.341

# iterate: VQVAYYTVMMN [SPATA17_Y84_M86V]
1.47

Thanks! And RLSVDCGKKSK [TUBA4A_Y161_Y161C] ?
0.619

What would you report for DKVFTYIFIME [SCN4A_Y1074] ?
0.695

Follow-up item: GYRVYYTPDSR [PTPRF_Y451]
2.15

Input WHYTFYNELRV [ACTC1_Y93_H90Y]
0.678

Please answer likewise for DGNIDYAEFAK [MCFD2_Y138_Y135N]
0.545

Please answer likewise for ESTPLYPMLFG [SCLY_Y280_F276S]
0.508

One more sequence: NVADHYRVFKP [ATP6V0D2_Y271_G272R_YF]
0.361

Also QEIATYRPLLE [KRT14_Y415_R417P] , if possible.
0.65

Now consider PNRILYGDFQQ [MYH7_Y715_R719Q] and answer again.
0.516

Then FQLENCCNGGG [INS_Y108_Y108C_YF] ?
0.586

Same again, this time with GYKVRYATWSI [FGFR1_Y210]
0.425

Then TNEYEYDELIV [TGM1_Y136_D132N] ?
0.975

Item: TLKVGYKEKQR [EPHA3_Y659_T660K]
0.366

Consider next the sequence QTLEAYIRWNK [SPAST_Y604] in the same way.
0.588

Try FFRDGCMPRQF [GSS_Y270_Y270C_YF] next.
0.518

###

# measured-on: Jak2 (UniProt O60674)
# Sequence (O60674 whole entry, looked up): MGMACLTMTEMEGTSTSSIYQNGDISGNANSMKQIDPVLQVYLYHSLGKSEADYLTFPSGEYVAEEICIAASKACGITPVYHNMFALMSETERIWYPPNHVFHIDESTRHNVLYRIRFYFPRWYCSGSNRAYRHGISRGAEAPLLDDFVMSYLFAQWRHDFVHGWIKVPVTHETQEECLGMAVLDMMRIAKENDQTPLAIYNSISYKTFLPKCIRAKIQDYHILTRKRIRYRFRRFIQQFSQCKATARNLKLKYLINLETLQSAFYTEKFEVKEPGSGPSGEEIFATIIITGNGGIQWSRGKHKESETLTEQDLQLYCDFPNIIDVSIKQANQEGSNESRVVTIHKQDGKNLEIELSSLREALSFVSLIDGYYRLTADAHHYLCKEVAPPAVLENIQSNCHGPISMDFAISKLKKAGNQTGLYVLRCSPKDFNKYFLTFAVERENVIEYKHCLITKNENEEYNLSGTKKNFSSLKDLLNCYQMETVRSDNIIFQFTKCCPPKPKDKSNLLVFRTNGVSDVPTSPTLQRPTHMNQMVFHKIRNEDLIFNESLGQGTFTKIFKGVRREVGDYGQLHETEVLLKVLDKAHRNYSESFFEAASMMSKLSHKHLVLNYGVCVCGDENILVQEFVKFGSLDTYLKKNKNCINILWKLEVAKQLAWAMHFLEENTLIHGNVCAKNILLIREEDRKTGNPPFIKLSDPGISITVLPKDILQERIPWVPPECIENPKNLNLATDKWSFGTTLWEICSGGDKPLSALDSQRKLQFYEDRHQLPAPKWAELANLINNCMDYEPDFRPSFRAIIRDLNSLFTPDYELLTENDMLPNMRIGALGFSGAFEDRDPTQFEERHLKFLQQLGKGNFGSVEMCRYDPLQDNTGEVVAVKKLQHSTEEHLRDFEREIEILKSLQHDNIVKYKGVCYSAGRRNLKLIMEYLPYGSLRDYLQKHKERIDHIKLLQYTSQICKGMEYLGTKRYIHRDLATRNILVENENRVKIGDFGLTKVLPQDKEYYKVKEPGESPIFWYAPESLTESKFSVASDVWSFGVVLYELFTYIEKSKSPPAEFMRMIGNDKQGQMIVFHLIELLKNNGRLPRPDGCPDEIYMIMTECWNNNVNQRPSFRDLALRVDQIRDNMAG
# procedure-details: phosphorylation enrichment, bacterial display (enrichment ratio); higher = better substrate or ligand; peptides without Tyr show the background
measure: phosphorylation enrichment
Note: the reply should be a number with no unit written.

Bench note: what phosphorylation enrichment did EAEPYYRSLRD [NPHS1_Y1139] show?
0.785

Next entry: AFQGKYTPSGQ [ALDOA_Y343_C339Y_YF]
0.547

Now the sequence AAQNCYKVTNG [TPI1_Y105]
0.665

Now try AKKVFYVNETR [SHH_Y253_I255N] .
0.526

Follow-up entry: GRTNIYNNKKD [SLC26A3_Y520_K521N]
0.691

Then what about the sequence SYSGEYGGGGG [ZG16_Y30] ?
0.4

Could you do the same for IPVNGYQPVPA [ROR2_Y824_V819I] , please?
0.533

Next sequence: LLREWYMIISR [HUWE1_Y4066]
1.3

Query RFVTRYIFNRE [HLA-DQB1_Y62_YF] next
0.921

Similarly, RLPSGYGLAFR [DLK1_Y262_YF] ?
0.837

Request: INMKEYCKKDY [NTN1_Y490_K489E]
1.29

For EQPNPYMVLDI [ROCK2_Y1197_S1194P] then?
1.06

Item: LLKMMYLMLDN [STAT1_Y203_K201M]
0.991

Another: PLDGEYFTLQV [TP53_Y327_I332V]
2.16
